Experiment: qHTS assay to identify small molecule agonists of the constitutive androstane receptor (CAR) signaling pathway - cell viability counter screen (AID 1224836); further: on the % scale 0 is the no-effect control and ±100 the full control effect; nearly all actives have a fitted effect of over 45% in size
Conditions: HepG2-CYP2B6-hCAR viability, CellTiter-Fluor, 23 h, PK11195 added to every well; series mostly up to 92.4 µM
Inconclusive results are not listed. Calls of active or inactive are those of the source. The call rests on the fitted dose curve; in most records, active means well fitted cell-killing curve with a large enough effect in the repeat runs; inconclusive means weak or mixed curves, or effect the other way; inactive means flat fitted curve, though single readings scatter.

molecule	viability change, negative = cytotoxic
CCC(=O)OCc1ccccc1	inactive
COc1ccc2cc1Oc1cc3c(cc1OC)CC[N+](C)(C)[C@H]3Cc1ccc(cc1)Oc1c(OC)c(OC)cc3c1[C@@H](C2)[N+](C)(C)CC3	inactive
CN(C)[C@@H]1C(=O)C(C(=O)NCN2CCCC2)=C(O)[C@@]2(O)C(=O)C3=C(O)c4c(O)cccc4[C@@](C)(O)C3C[C@@H]12 (some centres not stated)	inactive
CCN(C=O)CC	inactive
COc1ccccc1OCC1CNC(=O)O1 (configuration not stated)	inactive
OCCCCCO	inactive
CNC(=O)Nc1ccc(Cl)c(Cl)c1	inactive
C=CCCC(=O)O	inactive
C[N+]1(CC2COC(c3ccccc3)(c3ccccc3)O2)CCCCC1 (configuration not stated)	1.16% [at 19 µM] (inactive)
CC(C)NNC(=O)c1ccncc1	inactive
CCCCCC(=O)OCCc1ccccc1	inactive
CC1(C)OC[C@@H](COC(=O)CCc2ccc(OC[C@@H](O)CNCCNC(=O)N3CCOCC3)cc2)O1	inactive

Source: PubChem BioAssay (Tox21)
